# test details: Oral bioavailability in rat at 10 mg/kg measured after 24 hrs by LC/MS/MS analysis
# Format: ADME, organism-based
# measurement conditions: in vivo
property: bioavailability (%)
// note: answer is a bare numeric in %

[Q] GET /values?readout=bioavailability&item= `Cn1c(=O)cc(N2CCC[C@@H](N)C2)n(Cc2ccccc2C#N)c1=O`
[A] 45

====

# test details: Half life in dog at 3 mg/kg, po measured after 24 hrs by LC/MS/MS analysis
# Format: ADME, organism-based, Canis lupus familiaris
# measurement conditions: in vivo
property: half-life (h)
// note: answer is a bare numeric in h

[Q] GET /values?readout=half-life&item= Cn1c(=O)cc(N2CCC[C@@H](N)C2)n(Cc2ccccc2C#N)c1=O [ALOGLIPTIN]
[A] 3
